These measurements were taken from ChEMBL document CHEMBL4837181.

# Assay method text: AUC (0 to 24 hrs) in female cynomolgus monkey at 75 mg/kg, po BID measured on day 8
# Type: ADME, organism-based, Macaca fascicularis
# Set-up: time < 24 hr, route oral, dose 75 mg/kg
# Experimental setup: in vivo

{"Compound string": "CCOC(=O)[C@@H](Cc1cn(C)c2ccccc12)NC(=O)[C@@H](N)CC(C)C.Cl", "AUC at 24 h, µM·h": 0.0356}

---

Readings of AUC at 672 h for the listed molecules
# Assay method text: AUC (0 to 12 hrs) in po BID dosed cynomolgus monkey administered for 28 days
# Assay type: ADME, organism-based, Macaca fascicularis
# Set-up: route oral, time 28 day
# Experimental setup: in vivo

{"Compound string": "Cn1cc(C[C@@H](N)C(=O)O)c2ccccc21", "AUC at 672 h / µM·h": 320}
{"Compound string": "CCOC(=O)[C@@H](Cc1cn(C)c2ccccc12)NC(=O)[C@@H](N)CC(C)C.Cl", "AUC at 672 h / µM·h": 320}

---

# Assay method text: Cmax in mouse at 62 mg/kg administered bid
# Format: ADME, organism-based
# Design: dose 62 mg/kg
# Experimental setup: in vivo
Measured quantity: Cmax

{"Compound string": "Cn1cc(C[C@@H](N)C(=O)O)c2ccccc21", "Measured quantity": "Cmax", "Observed result": "> 16 µM"}

---

# Assay method text: Solubility of compound at pH 1
# Assay type: physicochemical
# Experimental setup: buffer

{"Compound": "Cn1cc(C[C@@H](N)C(=O)O)c2ccccc21 [INDOXIMOD]", "solubility": "> 20 mg/mL"}

---

# Assay method text: Half life in rat at 20 to 900 mg/kg, po
# Type: ADME, organism-based
# Experimental setup: in vivo, dose 20-900 mg/kg

{"Compound string": "Cn1cc(C[C@@H](N)C(=O)O)c2ccccc21", "half-life (h)": 23}

---

# Assay method text: AUC (0 to 12 hrs) in male rat at 150 mg/kg, po BID measured on day 28
# Type: ADME, organism-based
# Parameters: time < 12 hr, route oral, dose 150 mg/kg
# Experimental setup: in vivo

{"Compound string": "CCOC(=O)[C@@H](Cc1cn(C)c2ccccc12)NC(=O)[C@@H](N)CC(C)C.Cl", "AUC at 12 h, µM·h": 1410}

---

# Assay method text: Dose normalized AUC (0 to infinity) in rat at 50 mg/kg, po measured upto 72 hrs by LC-MS/MS analysis
# Assay type: ADME, organism-based
# Experimental setup: in vivo
Measured quantity: log10 of AUC/dose (log10 of the value in µM·h)

{"Compound string": "Cn1cc(C[C@@H](NC(=O)OCC(C)(C)C)C(=O)O)c2ccccc21", "Observed result": 0.74}
{"Compound string": "CCOC(=O)N[C@H](Cc1cn(C)c2ccccc12)C(=O)O", "Observed result": 2.36}
{"Compound string": "Cl.Cn1cc(C[C@@H](N)C(=O)OCc2ccccc2)c2ccccc21", "Observed result": 3.01}
{"Compound string": "CC(C)OC(=O)[C@H](N)Cc1cn(C)c2ccccc12.Cl", "Observed result": 3.02}
{"Compound string": "CCOC(=O)[C@H](N)Cc1cn(C)c2ccccc12.Cl", "Observed result": 3.48}
{"Compound string": "Cn1cc(C[C@@H](N)C(=O)O)c2ccccc21", "Observed result": 3.12}

---

# Assay method text: Clearance in female cynomolgus monkey at 75 mg/kg, po measured on day 1
# Assay type: ADME, organism-based, Macaca fascicularis
# Experimental setup: in vivo
Measured quantity: CL/F (mL/min/kg)

{"Compound string": "Cn1cc(C[C@@H](N)C(=O)O)c2ccccc21", "Measured quantity": "CL/F", "Observed result": 25.6}

---

# Assay method text: Stability in human plasma assessed as parent compound remaining measured after 24 hrs by LC-MS/MS analysis
# Type: ADME, cell-free
# Experimental setup: read-out: Stabilty
# key: entry, value: remaining at 24 h

{"Compound string": "C[C@H](N)C(=O)N[C@H](Cc1cn(C)c2ccccc12)C(=O)O.Cl", "Units of measure": "%", "remaining at 24 h": 0}
{"Compound string": "Cl.Cn1cc(C[C@@H](N)C(=O)N[C@H](Cc2cn(C)c3ccccc23)C(=O)O)c2ccccc21", "Units of measure": "%", "remaining at 24 h": 82}
{"Compound string": "Cl.Cn1cc(C[C@@H](NC(=O)[C@@H](N)CCC(=O)O)C(=O)O)c2ccccc21", "Units of measure": "%", "remaining at 24 h": 86}
{"Compound string": "CC(C)C[C@H](N)C(=O)N[C@H](Cc1cn(C)c2ccccc12)C(=O)O.Cl", "Units of measure": "%", "remaining at 24 h": 82}
{"Compound string": "CCOC(=O)[C@@H](Cc1cn(C)c2ccccc12)NC(=O)[C@@H](N)Cc1ccccc1.Cl", "Units of measure": "%", "remaining at 24 h": 11}

---

Reported half-life values are given for each entry in this list.
# Assay method text: Half life in male cynomolgus monkey at 675 mg/kg, po measured on day 1
# Format: ADME, organism-based, Macaca fascicularis
# Experimental setup: in vivo
Measured quantity: half-life (h)

{"Compound string": "CCOC(=O)[C@@H](Cc1cn(C)c2ccccc12)NC(=O)[C@@H](N)CC(C)C.Cl", "Observed result": 9.7}
{"Compound string": "CC(C)C[C@H](N)C(=O)N[C@H](Cc1cn(C)c2ccccc12)C(=O)O", "Observed result": 3.7}
{"Compound string": "Cn1cc(C[C@@H](N)C(=O)O)c2ccccc21", "Observed result": 4.3}

---

# Assay method text: AUC (0 to 24 hrs) in female cynomolgus monkey at 15 mg/kg, iv measured on day 1
# Assay type: ADME, organism-based, Macaca fascicularis
# Design: time < 24 hr, route intravenous, dose 15 mg/kg
# Experimental setup: in vivo
Measured quantity: AUC(0-t) at 24 h (µM·h)

{"Compound string": "Cn1cc(C[C@@H](N)C(=O)O)c2ccccc21", "Observed result": 70.6}

---

# Assay method text: Chemical stability of compound in PBS buffer assessed as compound remaining at pH 7.4 at 5 uM measured after 6 hrs by LC-MS/MS analysis
# Assay type: physicochemical
# Experimental setup: read-out: Stabilty
Please assign not met whenever remaining at 6 h, 5 µM is at or above 90%, and met whenever it is below.

{"Molecule": "CC(C)C[C@H](N)C(=O)N[C@H](Cc1cn(C)c2ccccc12)C(=O)O.Cl", "Label class": "not met"}
{"Molecule": "Cl.Cn1cc(C[C@@H](N)C(=O)OCC(O)CO)c2ccccc21 (stereo partly specified)", "Label class": "met"}
{"Molecule": "CCOC(=O)[C@H](N)Cc1cn(C)c2ccccc12.Cl", "Label class": "not met"}
{"Molecule": "Cl.Cn1cc(C[C@@H](NC(=O)[C@@H](N)CCC(=O)O)C(=O)O)c2ccccc21", "Label class": "met"}

---

# Assay method text: Change in Cmax in rat at 185 umol/kg, po measured upto 72 hrs by LC-MS/MS analysis
# Format: ADME, organism-based
# Experimental setup: in vivo, at 185 µmol/kg
Entries and their measured Activity follow.

{"Compound": "CCOC(=O)[C@@H](Cc1cn(C)c2ccccc12)NC(=O)[C@@H](N)CCSC.Cl", "Activity / %": 152}
{"Compound": "Cn1cc(C[C@@H](N)C(=O)OCC(O)CO)c2ccccc21.O=P(O)(O)O (stereo partly specified)", "Activity / %": 153}
{"Compound": "CCOC(=O)[C@@H](Cc1cn(C)c2ccccc12)NC(=O)[C@@H](N)CC(C)C.O=P(O)(O)O", "Activity / %": 69}
{"Compound": "Cn1cc(C[C@@H](N)C(=O)O)c2ccccc21", "Activity / %": 0}
{"Compound": "CCOC(=O)[C@@H](Cc1cn(C)c2ccccc12)NC(=O)[C@@H](N)CC(C)C.Cl", "Activity / %": 112}
{"Compound": "CCOC(=O)[C@@H](Cc1cn(C)c2ccccc12)NC(=O)[C@@H](N)CCSC.O=P(O)(O)O", "Activity / %": 49}

---

# Assay method text: Tmax in female cynomolgus monkey at 225 mg/kg, po measured on day 1
# Type: ADME, organism-based, Macaca fascicularis
# Experimental setup: in vivo
Measured quantity: Tmax

{"Molecule": "Cn1cc(C[C@@H](N)C(=O)O)c2ccccc21 [INDOXIMOD]", "Observed result": "1 h"}

---

# Assay method text: Chemical stability of compound in simulated intestinal fluid assessed as compound remaining at 5 uM measured after 3 hrs by LC-MS/MS analysis
# Format: ADME, physicochemical
# Experimental setup: read-out: Stabilty
Where a SMILES comes first, the peptide text is derived from it. [ ]: non-standard residue; d: D form. dTrp(1-Me) = Cn1cc(C[C@@H](N)C(=O)O)c2ccccc21
Measured quantity: remaining at 3 h, 5 µM (%)

{"Compound": "Cl.Cn1cc(C[C@@H](N)C(=O)OCCC2CCNCC2)c2ccccc21", "Observed result": 62}
{"Compound": "CCOC(=O)[C@@H](Cc1cn(C)c2ccccc12)NC(=O)[C@@H](N)[C@@H](C)CC.Cl", "Observed result": 91}
{"Compound": "Cl.Cn1cc(C[C@@H](NC(=O)[C@@H](N)Cc2c[nH]c3ccccc23)C(=O)O)c2ccccc21", "Observed result": 88}
{"Compound": "CC(C)[C@H](N)C(=O)N[C@H](Cc1cn(C)c2ccccc12)C(=O)O.Cl", "Observed result": 78}
{"Compound": "Cl.Cn1cc(C[C@@H](N)C(=O)OCC2CCNCC2)c2ccccc21", "Observed result": 45}
{"Compound": "CCOC(=O)[C@H](N)Cc1cn(C)c2ccccc12.Cl", "Observed result": 64}
{"Compound": "CC(C)C(NC(=O)[C@H](N)Cc1cn(C)c2ccccc12)C(=O)O.Cl (single isomer, unassigned)", "Observed result": 62}
{"Compound": "Cl.Cn1cc(C[C@@H](NC(=O)CN)C(=O)O)c2ccccc21 (H-Gly-[dTrp(1-Me)]-OH)", "Observed result": 64}
{"Compound": "CCOC(=O)[C@@H](Cc1cn(C)c2ccccc12)NC(=O)[C@@H](N)Cc1ccccc1.Cl", "Observed result": 65}
